- studyTarget: Protein RecA (Mycobacterium tuberculosis)
- Sequence (P9WHJ3 whole entry): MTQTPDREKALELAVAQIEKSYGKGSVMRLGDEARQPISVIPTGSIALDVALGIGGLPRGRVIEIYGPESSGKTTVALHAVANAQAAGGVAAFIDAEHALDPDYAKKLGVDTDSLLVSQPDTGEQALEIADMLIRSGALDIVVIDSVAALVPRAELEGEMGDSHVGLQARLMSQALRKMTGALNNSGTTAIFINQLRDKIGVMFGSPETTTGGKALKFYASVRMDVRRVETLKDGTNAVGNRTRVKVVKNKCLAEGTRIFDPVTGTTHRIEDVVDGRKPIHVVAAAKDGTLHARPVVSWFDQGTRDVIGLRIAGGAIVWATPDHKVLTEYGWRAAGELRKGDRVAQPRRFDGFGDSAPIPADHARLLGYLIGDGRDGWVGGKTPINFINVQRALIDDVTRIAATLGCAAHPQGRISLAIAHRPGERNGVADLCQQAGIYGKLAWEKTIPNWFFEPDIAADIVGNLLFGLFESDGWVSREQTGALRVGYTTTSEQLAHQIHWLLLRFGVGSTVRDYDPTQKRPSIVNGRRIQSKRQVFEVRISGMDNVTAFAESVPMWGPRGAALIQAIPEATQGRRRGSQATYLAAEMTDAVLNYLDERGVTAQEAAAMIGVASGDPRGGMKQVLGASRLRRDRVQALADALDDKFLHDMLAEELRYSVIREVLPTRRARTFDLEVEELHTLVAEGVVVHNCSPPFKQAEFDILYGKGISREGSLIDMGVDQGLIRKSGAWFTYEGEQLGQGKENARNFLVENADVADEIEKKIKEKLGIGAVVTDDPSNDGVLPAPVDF
- testSummary: Fluorescence Cell-Free Homogeneous Dose Retest to Identify Inhibitors of RecA-Intein Splicing Activity. [Related pubchem assays (depositor defined):AID2097, AID2223, AID489010, AID492950]
- Format: functional
Activity calls are given as the source filed them.
// classify into Yes = active, No = inactive

Reference set (2 entries):
Ask: Outcome? `Cc1nc2ccccc2c2c1C(=O)N(C)C2=O`
Reply: Yes

Ask: Outcome? `Cn1cnc([N+](=O)[O-])c1S(=O)(=O)c1cccc(Cl)c1`
Reply: Yes

Proceed to the following item.
Ask: Outcome? `COc1cc(C(c2c(C)n[nH]c2O)c2c(C)n[nH]c2O)cc(Cl)c1O`
Reply: Yes

====

- studyTarget: Caspase-6 (Homo sapiens, UniProt P55212)
- Sequence (P55212 whole entry): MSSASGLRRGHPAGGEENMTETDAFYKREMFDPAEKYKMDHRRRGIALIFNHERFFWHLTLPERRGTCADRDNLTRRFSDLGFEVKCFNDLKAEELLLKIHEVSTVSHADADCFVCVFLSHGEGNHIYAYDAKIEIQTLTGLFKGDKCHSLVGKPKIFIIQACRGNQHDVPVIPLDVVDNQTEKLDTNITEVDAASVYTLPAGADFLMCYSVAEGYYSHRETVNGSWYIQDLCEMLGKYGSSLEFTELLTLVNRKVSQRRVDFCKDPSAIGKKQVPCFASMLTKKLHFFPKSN
- testSummary: human caspase-6 inhibitors, dose response, biochemical, VEID-R110 fluorescence, cherry-pick (AID 720632)
The source made the active and inactive calls.
Each entry below lists one item and its recorded AC50 value.

Quick note, AC50 for `O=S(=O)(O)c1cc(O)c2cc(Nc3ccccc3)ccc2c1` landed at 0.403 µM (active)

Quick note, AC50 for `COc1ccc(Cl)cc1N(CC(=O)N/N=C/c1ccc(OCC(N)=O)cc1)S(C)(=O)=O` landed at 9 µM (active)

Quick note, AC50 for `O=C(O)c1cc(Nc2cc(Cl)c3nonc3c2[N+](=O)[O-])ccc1O` landed at 14.6 µM (active)

Quick note, AC50 for `Cc1cccc(N2C(=O)Cc3ccccc3C2=O)c1` landed at 22.7 µM (active)

Quick note, AC50 for `O=C(O)c1ccc(Cl)c(S(=O)(=O)Nc2ccc3c[nH]nc3c2)c1` landed at 11.1 µM (active)

====

- studyTarget: Ubiquitin-conjugating enzyme E2 N (Homo sapiens);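 further: Dose-response confirmation in a TR-FRET assay detecting UBC13-driven polyubiquitin chain formation, inhibition measured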
- Sequence (P61088 whole entry): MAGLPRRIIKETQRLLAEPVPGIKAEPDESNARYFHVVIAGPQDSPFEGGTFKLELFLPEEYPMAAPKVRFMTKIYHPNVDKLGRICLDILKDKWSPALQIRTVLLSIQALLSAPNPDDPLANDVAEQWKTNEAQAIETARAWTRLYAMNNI
- Format: functional
The source made the active and inactive calls.
// classify into class 1 (active), class 0 (inactive)

Ask: Outcome? `Cc1cc(Nc2ccccc2)nc(NCc2ccccc2)n1`
Reply: class 0

Continuing:
Ask: Outcome? `O=C(C(=O)N1CCOCC1)c1cn(Cc2ccccc2)c2ccccc12`
Reply: class 0

Ask: Outcome? `CCCCN(CC)CCNC(=O)c1cc2c(=O)n(C)c3ccccc3c2n1C`
Reply: class 0

Ask: Outcome? `Cc1ccc(Nc2cc(C)nc(NCc3ccccc3)n2)cc1`
Reply: class 0

Ask: Outcome? `C#CCOCCOCCOCCNc1nc(N2CCN(C(=O)[C@H](CCCCN)n3cc([C@@H](N)[C@H](C)CC)nn3)CC2)nc(N2CCN(C(=O)[C@H](CCCCN)n3cc([C@@H](N)CC(N)=O)nn3)CC2)n1`
Reply: class 1

Ask: Outcome? `Cc1ccc(C)c(N2CCN(C(=S)Nc3ccc4nc(N5CCN(C)CC5)cc(C)c4c3)CC2)c1`
Reply: class 0

Ask: Outcome? `C=CCNC(=S)Nc1sc2c(c1C(=O)OCC)CCN(C(=O)OCC)C2`
Reply: class 1

Ask: Outcome? CCOc1ccc(N(C(=O)c2snc(C(N)=O)c2N)C(C(=O)NC2CCCC2)C(C)C)cc1 (centres undefined)
Reply: class 0

Ask: Outcome? `Cc1ccc2nc(-c3ccc(NC(S)=NC4CC(C)(C)NC(C)(C)C4)cc3)sc2c1`
Reply: class 1

====

- studyTarget: Large T antigen (Simian virus 40);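 further: Confirmatory-stage PubChem screen for compounds that inhibit SV40 T antigen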
- Sequence (P03070 whole entry): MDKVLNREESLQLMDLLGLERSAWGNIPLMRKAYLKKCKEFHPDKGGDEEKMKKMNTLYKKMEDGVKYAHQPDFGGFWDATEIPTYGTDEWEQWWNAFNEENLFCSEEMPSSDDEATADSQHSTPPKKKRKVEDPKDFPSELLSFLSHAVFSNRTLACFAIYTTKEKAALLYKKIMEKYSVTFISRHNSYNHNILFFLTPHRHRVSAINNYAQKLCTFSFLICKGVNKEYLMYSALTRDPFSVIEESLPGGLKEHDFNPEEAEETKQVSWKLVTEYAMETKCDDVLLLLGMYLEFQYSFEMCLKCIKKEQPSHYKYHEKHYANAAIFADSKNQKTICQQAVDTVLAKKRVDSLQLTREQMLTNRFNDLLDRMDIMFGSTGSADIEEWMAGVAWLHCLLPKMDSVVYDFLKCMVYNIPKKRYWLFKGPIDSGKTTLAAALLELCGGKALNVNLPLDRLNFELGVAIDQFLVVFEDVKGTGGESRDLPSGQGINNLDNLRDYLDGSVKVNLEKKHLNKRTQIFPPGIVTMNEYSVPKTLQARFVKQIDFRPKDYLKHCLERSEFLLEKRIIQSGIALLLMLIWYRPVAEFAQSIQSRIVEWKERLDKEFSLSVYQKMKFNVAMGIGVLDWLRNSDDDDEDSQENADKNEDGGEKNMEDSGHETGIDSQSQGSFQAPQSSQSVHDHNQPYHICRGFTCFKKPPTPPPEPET
- Assay type: functional, Betapolyomavirus macacae
The source made the active and inactive calls.
metricName: IC50

Quick note, IC50 for `Cc1ccc(N2C(=O)NC(=O)/C(=C/c3ccc(-c4ccc(C(=O)O)c(Cl)c4)o3)C2=O)cc1` landed at 32.7 µM (active)

Quick note, IC50 for `COc1ccc2[nH]c3c(=O)n(CCCCC(=O)NCCN4CCCC4)c(=S)[nH]c3c2c1` landed at 10.4 µM (active)

Quick note, IC50 for `CN(C)c1ccc(NC(=O)COC(=O)CCC(=O)c2ccc(F)cc2)cc1` landed at 19.2 µM (active)

Quick note, IC50 for `O=C(O)c1cc(Nc2cc(Cl)c3nonc3c2[N+](=O)[O-])ccc1O` landed at 40.4 µM (active)

Quick note, IC50 for `Cc1nn(CC(=O)Nc2ccc(N(C)C)cc2)c(C)c1[N+](=O)[O-]` landed at 12.3 µM (active)

Continuing:
Quick note, IC50 for Oc1ccc(/C=N/NC(=S)NCC2CCCO2)cc1 (configuration not stated) landed at 5.89 µM (active)

====

- studyTarget: Short transient receptor potential channel 4 (Mus musculus)
- Sequence (Q9QUQ5 whole entry): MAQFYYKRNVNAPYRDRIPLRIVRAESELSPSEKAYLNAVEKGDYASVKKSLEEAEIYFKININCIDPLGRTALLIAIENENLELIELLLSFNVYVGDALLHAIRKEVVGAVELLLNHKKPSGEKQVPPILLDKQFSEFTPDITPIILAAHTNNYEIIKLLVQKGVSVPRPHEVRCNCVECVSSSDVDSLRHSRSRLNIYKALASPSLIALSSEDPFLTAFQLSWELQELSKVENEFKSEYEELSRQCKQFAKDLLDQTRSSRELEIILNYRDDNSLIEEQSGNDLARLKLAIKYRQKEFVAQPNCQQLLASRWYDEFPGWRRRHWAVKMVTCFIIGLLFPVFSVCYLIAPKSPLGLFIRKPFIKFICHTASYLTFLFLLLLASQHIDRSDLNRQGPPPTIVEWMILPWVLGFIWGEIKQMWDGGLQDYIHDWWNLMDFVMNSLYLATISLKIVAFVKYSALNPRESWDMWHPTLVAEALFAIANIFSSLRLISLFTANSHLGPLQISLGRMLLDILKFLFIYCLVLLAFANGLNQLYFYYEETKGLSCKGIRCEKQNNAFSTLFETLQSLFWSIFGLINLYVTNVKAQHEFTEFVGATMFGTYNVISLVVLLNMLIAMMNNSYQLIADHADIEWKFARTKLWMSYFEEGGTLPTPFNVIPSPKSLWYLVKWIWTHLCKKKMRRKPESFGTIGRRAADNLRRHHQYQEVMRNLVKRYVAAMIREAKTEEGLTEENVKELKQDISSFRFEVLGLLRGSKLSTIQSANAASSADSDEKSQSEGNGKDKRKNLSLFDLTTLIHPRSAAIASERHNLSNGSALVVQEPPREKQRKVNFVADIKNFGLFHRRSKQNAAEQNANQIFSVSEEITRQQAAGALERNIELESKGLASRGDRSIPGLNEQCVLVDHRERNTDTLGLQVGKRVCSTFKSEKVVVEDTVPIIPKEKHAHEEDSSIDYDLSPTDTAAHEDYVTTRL
- testSummary: mouse TRPC4 channel inhibitors, dose response, cell-based, HEK293 TRPC4/mu-opioid, Fluo-4 calcium (AID 434942);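 further: potency of inhibitors blocking the TRPC4 calcium response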
- Assay type: functional
The source made the active and inactive calls.
Each entry below lists one item and its recorded EC50 value.

The cases that follow already have their EC50 on record.
Quick note, EC50 for `Clc1cccc(COn2c(-c3ccc(Cl)cc3Cl)nc3ncccc32)c1` landed at 5.96 µM (active)

Quick note, EC50 for `COC(=O)C1=C(C)N(Cc2ccccc2)C(=S)N[C@H]1c1ccccc1` landed at 5.96 µM (active)

Continuing:
Quick note, EC50 for CC(OC(=O)CNC(=O)c1ccccc1F)C(=O)Nc1nc(-c2ccccc2)cs1 (stereo not given) landed at 1.5 µM (active)

Quick note, EC50 for `CCCCC[n+]1cccc2c3ccccc3ccc21` landed at 3.35 µM (active)

Quick note, EC50 for `CCOc1cccc(CNCCO)c1OCc1ccc(Cl)cc1` landed at 1.88 µM (active)
